Examples of sequences with documented protein stability index follow.
system: Saccharomyces cerevisiae; assay: protein stability index of tFT-peptide fusion (C-terminal peptide) (PSI (0-1 scale)); higher = more stable (slower turnover); details: genetic background: das1 deletion; temperature: 30 C
value.type: protein stability index

[[record]]
sequence_code = "VDALQIQYNRRP [SCD5 C-terminal 12 aa]"
reported_measurement = 0.681

[[record]]
sequence_code = "NGLWEQEKTEKR [YKR041W C-terminal 12 aa]"
reported_measurement = 0.716

[[record]]
sequence_code = "EYDDDSGNQGVW [GRE1 C-terminal 12 aa]"
reported_measurement = 0.691

[[record]]
sequence_code = "DLKIYLQQDESL [YEL023C C-terminal 12 aa]"
reported_measurement = 0.709

[[record]]
sequence_code = "LSDLHIKEAKID [OGG1 C-terminal 12 aa]"
reported_measurement = 0.71

[[record]]
sequence_code = "AAKYLNSLSVNQ [PTP1 C-terminal 12 aa]"
reported_measurement = 0.698

[[record]]
sequence_code = "NSIDIGSRLSLM [PEX1 C-terminal 12 aa]"
reported_measurement = 0.704

[[record]]
sequence_code = "KVTSANEHTSAV [PEX27 C-terminal 12 aa]"
reported_measurement = 0.689

[[record]]
sequence_code = "EPNGYIKNLKWT [RXT3 C-terminal 12 aa]"
reported_measurement = 0.713

[[record]]
sequence_code = "HEWKTSINAIST [SWT1 C-terminal 12 aa]"
reported_measurement = 0.688

[[record]]
sequence_code = "NPADYLLEFGSG [RTG3 C-terminal 12 aa]"
reported_measurement = 0.71

[[record]]
sequence_code = "HCTVVLPSILKR [YHR217C C-terminal 12 aa]"
reported_measurement = 0.714

[[record]]
sequence_code = "RMSNGLYTISMS [YPR050C C-terminal 12 aa]"
reported_measurement = 0.694

[[record]]
sequence_code = "TFKPIYLWALDL [SPP382 C-terminal 12 aa]"
reported_measurement = 0.694

[[record]]
sequence_code = "YKLGPGEDTATK [DPL1 C-terminal 12 aa]"
reported_measurement = 0.707


* * *

Examples of sequences with documented protein stability index follow.
test system: Saccharomyces cerevisiae; assay: protein stability index of tFT-peptide fusion (C-terminal peptide) (PSI (0-1 scale)); higher = more stable (slower turnover); settings: genetic background: das1 deletion; temperature: 30 C
value.type: protein stability index

[[record]]
sequence_code = "NSDRLSPMEIYN [SPO14 C-terminal 12 aa]"
value_type = "protein stability index"
reported_measurement = 0.712

[[record]]
sequence_code = "KYKFYDDENLTE [SOL1 C-terminal 12 aa]"
value_type = "protein stability index"
reported_measurement = 0.72

[[record]]
sequence_code = "ERNGWKFFFKEV [YHR137C-A C-terminal 12 aa]"
value_type = "protein stability index"
reported_measurement = 0.694


* * *

system: Saccharomyces cerevisiae; assay: protein stability index of tFT-peptide fusion (C-terminal peptide) (PSI (0-1 scale)); higher = more stable (slower turnover); settings: genetic background: wild type; temperature: 30 C
Examples of sequences with documented protein stability index follow.
value.type: protein stability index

[[record]]
sequence_code = "KRRQGRGAKGGE"
tested_on = "Saccharomyces cerevisiae"
reported_measurement = 0.629

[[record]]
sequence_code = "KSYRVGKMAAQR"
tested_on = "Saccharomyces cerevisiae"
reported_measurement = 0.683

[[record]]
sequence_code = "SLQRLFGRGGMV"
tested_on = "Saccharomyces cerevisiae"
reported_measurement = 0.643

[[record]]
sequence_code = "LRGVACCSPILG"
tested_on = "Saccharomyces cerevisiae"
reported_measurement = 0.631

[[record]]
sequence_code = "PPLPLTLRSSPS"
tested_on = "Saccharomyces cerevisiae"
reported_measurement = 0.677

[[record]]
sequence_code = "ALSTFTGFLRIP"
tested_on = "Saccharomyces cerevisiae"
reported_measurement = 0.55

[[record]]
sequence_code = "LLFFSSCLDCFV"
tested_on = "Saccharomyces cerevisiae"
reported_measurement = 0.635

[[record]]
sequence_code = "GSWAVQEHMLLE"
tested_on = "Saccharomyces cerevisiae"
reported_measurement = 0.728

[[record]]
sequence_code = "RATTNKRIRVEL"
tested_on = "Saccharomyces cerevisiae"
reported_measurement = 0.704

[[record]]
sequence_code = "TPMEKRQDANIN"
tested_on = "Saccharomyces cerevisiae"
reported_measurement = 0.691

[[record]]
sequence_code = "DKVTLLRRCKQY"
tested_on = "Saccharomyces cerevisiae"
reported_measurement = 0.202

[[record]]
sequence_code = "AERKTKASRRKE"
tested_on = "Saccharomyces cerevisiae"
reported_measurement = 0.654

[[record]]
sequence_code = "TILKKKNRRNKE"
tested_on = "Saccharomyces cerevisiae"
reported_measurement = 0.697

[[record]]
sequence_code = "HPMVFRLAAPRL"
tested_on = "Saccharomyces cerevisiae"
reported_measurement = 0.779

[[record]]
sequence_code = "WGARSRFRWGRS"
tested_on = "Saccharomyces cerevisiae"
reported_measurement = 0.728

[[record]]
sequence_code = "VPPGVVSSPCPN"
tested_on = "Saccharomyces cerevisiae"
reported_measurement = 0.661

[[record]]
sequence_code = "RFGRGAGGGLGG"
tested_on = "Saccharomyces cerevisiae"
reported_measurement = 0.676

[[record]]
sequence_code = "PPPPPPPLVPPL"
tested_on = "Saccharomyces cerevisiae"
reported_measurement = 0.703

[[record]]
sequence_code = "GVPQEGHGLEGY"
tested_on = "Saccharomyces cerevisiae"
reported_measurement = 0.705

[[record]]
sequence_code = "PSPDLRAPSSVR"
tested_on = "Saccharomyces cerevisiae"
reported_measurement = 0.731

[[record]]
sequence_code = "GPRGWRASVWAG"
tested_on = "Saccharomyces cerevisiae"
reported_measurement = 0.687

[[record]]
sequence_code = "PLLSCLFLLFFL"
tested_on = "Saccharomyces cerevisiae"
reported_measurement = 0.526

[[record]]
sequence_code = "AVHASTLCSSIG"
tested_on = "Saccharomyces cerevisiae"
reported_measurement = 0.666

[[record]]
sequence_code = "PSPICFYPLGAS"
tested_on = "Saccharomyces cerevisiae"
reported_measurement = 0.71

[[record]]
sequence_code = "SVPIAFYLLFFQ"
tested_on = "Saccharomyces cerevisiae"
reported_measurement = 0.464

[[record]]
sequence_code = "GGGAGKGPQTRG"
tested_on = "Saccharomyces cerevisiae"
reported_measurement = 0.676

[[record]]
sequence_code = "QKKKIRKKKKTT"
tested_on = "Saccharomyces cerevisiae"
reported_measurement = 0.685

[[record]]
sequence_code = "QIKPSLGLDKPS"
tested_on = "Saccharomyces cerevisiae"
reported_measurement = 0.683

[[record]]
sequence_code = "SPPPSSSPPPSP"
tested_on = "Saccharomyces cerevisiae"
reported_measurement = 0.612

[[record]]
sequence_code = "GRPKGGGIGEAG"
tested_on = "Saccharomyces cerevisiae"
reported_measurement = 0.693

[[record]]
sequence_code = "LLALPFPPSSLF"
tested_on = "Saccharomyces cerevisiae"
reported_measurement = 0.701

[[record]]
sequence_code = "RLPVPAAFSSSI"
tested_on = "Saccharomyces cerevisiae"
reported_measurement = 0.79

[[record]]
sequence_code = "GGCVVKVRAQGP"
tested_on = "Saccharomyces cerevisiae"
reported_measurement = 0.636

[[record]]
sequence_code = "YLSVLQLRCFPA"
tested_on = "Saccharomyces cerevisiae"
reported_measurement = 0.659

[[record]]
sequence_code = "NPPPPAHYSRPP"
tested_on = "Saccharomyces cerevisiae"
reported_measurement = 0.73

[[record]]
sequence_code = "EGRPEERETTGH"
tested_on = "Saccharomyces cerevisiae"
reported_measurement = 0.587

[[record]]
sequence_code = "CGLMIFSRSYRF"
tested_on = "Saccharomyces cerevisiae"
reported_measurement = 0.704

[[record]]
sequence_code = "PPLRPAADFRTT"
tested_on = "Saccharomyces cerevisiae"
reported_measurement = 0.733

[[record]]
sequence_code = "PRCRSLPPLRVL"
tested_on = "Saccharomyces cerevisiae"
reported_measurement = 0.697

[[record]]
sequence_code = "FFVKGFRLLVFQ"
tested_on = "Saccharomyces cerevisiae"
reported_measurement = 0.47

[[record]]
sequence_code = "VGCPGGVWVFRG"
tested_on = "Saccharomyces cerevisiae"
reported_measurement = 0.535

[[record]]
sequence_code = "KKYEKNGKSSQK"
tested_on = "Saccharomyces cerevisiae"
reported_measurement = 0.685

[[record]]
sequence_code = "WGVCWRVWGFGC"
tested_on = "Saccharomyces cerevisiae"
reported_measurement = 0.677

[[record]]
sequence_code = "WVGLGRVWVKLG"
tested_on = "Saccharomyces cerevisiae"
reported_measurement = 0.697

[[record]]
sequence_code = "SRSISCPVLSKI"
tested_on = "Saccharomyces cerevisiae"
reported_measurement = 0.707

[[record]]
sequence_code = "KLVVFPYIRPSP"
tested_on = "Saccharomyces cerevisiae"
reported_measurement = 0.709

[[record]]
sequence_code = "RLPTRRSALMGL"
tested_on = "Saccharomyces cerevisiae"
reported_measurement = 0.738

[[record]]
sequence_code = "PRPCSPPPPDPC"
tested_on = "Saccharomyces cerevisiae"
reported_measurement = 0.703

[[record]]
sequence_code = "CLLFSRQLLESP"
tested_on = "Saccharomyces cerevisiae"
reported_measurement = 0.678

[[record]]
sequence_code = "DIKKSTKGQNQQ"
tested_on = "Saccharomyces cerevisiae"
reported_measurement = 0.602

[[record]]
sequence_code = "GLLAEPALLLLS"
tested_on = "Saccharomyces cerevisiae"
reported_measurement = 0.499

[[record]]
sequence_code = "HDDQIRASQNKL"
tested_on = "Saccharomyces cerevisiae"
reported_measurement = 0.747

[[record]]
sequence_code = "GGRFGMWRGGQA"
tested_on = "Saccharomyces cerevisiae"
reported_measurement = 0.725

[[record]]
sequence_code = "SAPYLSTTLSVK"
tested_on = "Saccharomyces cerevisiae"
reported_measurement = 0.671

[[record]]
sequence_code = "GSTSSSFPVSIR"
tested_on = "Saccharomyces cerevisiae"
reported_measurement = 0.727

